- subject_of_test: T1, Human CD94 (human, UniProt Q13241 1-179)
- T1 construct: also called hCD94
- T1 sequence: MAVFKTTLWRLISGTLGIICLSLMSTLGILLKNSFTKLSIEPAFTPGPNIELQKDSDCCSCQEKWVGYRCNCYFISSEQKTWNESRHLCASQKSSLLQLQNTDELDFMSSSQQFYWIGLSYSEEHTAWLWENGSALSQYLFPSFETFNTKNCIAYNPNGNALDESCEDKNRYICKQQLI
- procedure_details: flow, Jurkat, 100 nM Ab
Reported MFI normalized to WT by item:
Enter the number alone.

binder="KW9.3.3 (antibody, V domains shown) VH: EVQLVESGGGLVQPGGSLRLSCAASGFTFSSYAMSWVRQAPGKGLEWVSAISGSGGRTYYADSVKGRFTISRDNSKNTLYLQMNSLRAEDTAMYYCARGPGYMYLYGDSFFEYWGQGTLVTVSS VL: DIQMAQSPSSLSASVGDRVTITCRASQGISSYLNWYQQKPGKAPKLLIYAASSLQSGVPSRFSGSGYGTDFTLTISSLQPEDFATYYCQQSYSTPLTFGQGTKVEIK" obs_value=0.84
binder="KW7.3.7 (antibody, V domains shown) VH: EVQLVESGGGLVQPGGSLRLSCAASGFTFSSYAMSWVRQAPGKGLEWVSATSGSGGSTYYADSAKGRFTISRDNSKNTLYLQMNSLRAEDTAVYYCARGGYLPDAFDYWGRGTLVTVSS VL: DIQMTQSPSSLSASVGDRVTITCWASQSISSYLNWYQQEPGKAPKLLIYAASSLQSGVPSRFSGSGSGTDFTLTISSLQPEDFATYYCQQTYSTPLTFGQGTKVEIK" obs_value=1.01
binder="KM12.2.3 (antibody, human IgG1, V domains shown) VH: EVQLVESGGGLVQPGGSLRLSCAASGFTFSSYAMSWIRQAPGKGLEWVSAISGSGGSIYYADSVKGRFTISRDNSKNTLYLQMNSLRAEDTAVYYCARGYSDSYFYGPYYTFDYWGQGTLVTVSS VL: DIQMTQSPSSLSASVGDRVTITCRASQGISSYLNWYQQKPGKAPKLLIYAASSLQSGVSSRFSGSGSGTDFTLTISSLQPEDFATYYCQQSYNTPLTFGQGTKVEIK" obs_value=1.36

Please examine the following record next.
Which measured MFI normalized to WT value corresponds to KW1.3.12 (antibody, human IgG1, V domains shown) VH: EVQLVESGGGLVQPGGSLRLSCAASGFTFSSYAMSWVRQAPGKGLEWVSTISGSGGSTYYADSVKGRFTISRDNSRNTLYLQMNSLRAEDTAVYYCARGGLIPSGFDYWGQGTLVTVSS VL: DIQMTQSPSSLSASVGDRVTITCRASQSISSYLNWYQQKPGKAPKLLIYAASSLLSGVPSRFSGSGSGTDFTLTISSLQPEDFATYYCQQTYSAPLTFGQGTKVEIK ?
1.07
